# System: isolated rat liver mitochondria
# protocol description: Oxygen consumption, Clark-type oxygen electrode
# Assay type: biochemical
# conditions used: 100 µM; glutamate/malate driven state 4 respiration; isolated rat liver mitochondria
reported endpoint: I-sub, % of control (O2 consumption rate)

[
  {
    "compound": "CCc1cc(Cc2cc(CC)cc(C(C)(C)C)c2O)c(O)c(C(C)(C)C)c1",
    "target under test": "isolated rat liver mitochondria",
    "result value": "175 (20.9) % of control"
  },
  {
    "compound": "Cc1cc(Cc2cc(C)cc(C(C)(C)C)c2O)c(O)c(C(C)(C)C)c1",
    "target under test": "isolated rat liver mitochondria",
    "result value": "244 (29.2) % of control"
  },
  {
    "compound": "NNc1nc(-c2ccccc2)cs1 [2-Hydrazino-4-phenylthiazole]",
    "target under test": "isolated rat liver mitochondria",
    "result value": "119 (16.0) % of control"
  },
  {
    "compound": "N#CC(c1ccc(Cl)cc1)c1c(Cl)cc(-n2ncc(=O)[nH]c2=O)cc1Cl (centres unmarked) [Diclazuril, reference compound]",
    "target under test": "isolated rat liver mitochondria",
    "result value": "115 (15.1) % of control"
  },
  {
    "compound": "NNc1nc(-c2ccc(N)cc2)cs1 [2-Hydrazino-4-(4-aminophenyl) thiazole]",
    "target under test": "isolated rat liver mitochondria",
    "result value": "109 (14.6) % of control"
  }
]
